Give measured Ki for each item. Keep answers brief.
target: Human immunodeficiency virus type 1 protease (Human immunodeficiency virus 1, UniProt Q72874, Q7K); assay: Inhibition of wild type HIV1 protease Q7K mutant
One number for each entry, in nM.

Example cases with answers are listed next.
Smiles data	Readout units	Ki
CC(C)CN(C[C@@H](O)[C@H](Cc1ccccc1)NC(=O)[C@@H]1CN(c2ccc(F)c(F)c2)C(=O)O1)S(=O)(=O)c1ccc2c(c1)OCO2	nM	0.085
COc1cccc(S(=O)(=O)N(Cc2cccs2)C[C@@H](O)[C@H](Cc2ccccc2)NC(=O)[C@@H]2CN(c3ccc(C(C)=O)cc3)C(=O)O2)c1	nM	29.5
COc1ccc(S(=O)(=O)N(CC(C)C)C[C@@H](O)[C@H](Cc2ccccc2)NC(=O)[C@H]2CN(c3ccccc3)C(=O)O2)cc1	nM	10.7

Give measured Ki for every item shown.
1. CC(=O)c1ccc(N2C[C@@H](C(=O)N[C@@H](Cc3ccccc3)[C@H](O)CN(CC(C)C)S(=O)(=O)c3ccc(N)cc3)OC2=O)cc1
2. COc1ccc(S(=O)(=O)N(CC(C)C)C[C@@H](O)[C@H](Cc2ccccc2)NC(=O)[C@@H]2CN(c3ccccc3)C(=O)O2)cc1

A:
[0.184, 0.1]

Give measured Ki for every item shown.
1. COc1cccc(S(=O)(=O)N(CC(C)C)C[C@@H](O)[C@H](Cc2ccccc2)NC(=O)[C@@H]2CN(c3ccc(C(C)=O)cc3)C(=O)O2)c1
2. COc1ccc(S(=O)(=O)N(CC(C)C)C[C@@H](O)[C@H](Cc2ccccc2)NC(=O)[C@@H]2CN(c3cccc(OC)c3)C(=O)O2)cc1
3. COc1ccc(S(=O)(=O)N(CC2CC2)C[C@@H](O)[C@H](Cc2ccccc2)NC(=O)[C@@H]2CN(c3ccc(C(C)=O)cc3)C(=O)O2)cc1
4. CC(C)CN(C[C@@H](O)[C@H](Cc1ccccc1)NC(=O)[C@@H]1CN(c2ccccc2)C(=O)O1)S(=O)(=O)c1ccc(N)cc1
5. CC(C)CN(C[C@@H](O)[C@H](Cc1ccccc1)NC(=O)[C@H]1CN(c2ccccc2)C(=O)O1)S(=O)(=O)c1ccc(N)cc1
6. CC(C)CN(C[C@@H](O)[C@H](Cc1ccccc1)NC(=O)[C@@H]1CN(c2cccc(C(F)(F)F)c2)C(=O)O1)S(=O)(=O)c1ccc(OC(F)(F)F)cc1
7. COc1ccc(S(=O)(=O)N(CC(C)C)C[C@@H](O)[C@H](Cc2ccccc2)NC(=O)[C@@H]2CN(c3cccc(F)c3)C(=O)O2)cc1F
8. COc1ccc(S(=O)(=O)N(CC(C)C)C[C@@H](O)[C@H](Cc2ccccc2)NC(=O)[C@@H]2CN(c3cccc(C(F)(F)F)c3)C(=O)O2)cc1

A:
1: 0.84; 2: 0.045; 3: 0.8; 4: 0.53; 5: 37.4; 6: 10; 7: 0.07; 8: 0.006
